Origin of the recorded values: patent US20260167638A1

# METHOD_NOTES: Example 21 crossover pharmacokinetics of mono-tosylate and di-tosylate tablets in fasted dogs
# Format: in vivo, beagle dogs
# CONDITION_SUMMARY: male, beagle, dog, plasma, po, 200 mg/tablet per dog, Example 21, fasted dogs, 200 mg tablet PO, mean; LLOQ 20 ng/mL; read-out: Plasma concentration of Compound I at 4 hours
ASSAY_ENDPOINT: concentration at 4 h (µg/mL)
One number for each entry, in µg/mL.

For Cc1ccc(S(=O)(=O)O)cc1.Cn1cc(-c2cn(-c3ccc(OC(F)(F)F)cc3)c(=O)c3ncn(C)c23)cn1 [mono-tosylate] the compound record lists concentration at 4 h as 5.73

###

# METHOD_NOTES: Solubility in pure water at 25° C. with PXRD of solid residues
# Format: physicochemical
# CONDITION_SUMMARY: pH of solubility sample, pure water, 25° C., 24 hours
ASSAY_ENDPOINT: pH (24 hrs)
Numbers only.

Illustrative cases are given below, each with its answer.
Br.Cn1cc(-c2cn(-c3ccc(OC(F)(F)F)cc3)c(=O)c3ncn(C)c23)cn1 [mono-HBr amorphous]; 1.6
Br.Cn1cc(-c2cn(-c3ccc(OC(F)(F)F)cc3)c(=O)c3ncn(C)c23)cn1 [mono-HBr crystalline]; 1.9
Cl.Cn1cc(-c2cn(-c3ccc(OC(F)(F)F)cc3)c(=O)c3ncn(C)c23)cn1 [mono-HCl amorphous]; 1.6

Attention now turns to another entry.
The recorded pH (24 hrs) for entry Cn1cc(-c2cn(-c3ccc(OC(F)(F)F)cc3)c(=O)c3ncn(C)c23)cn1.O=S(=O)(O)O [mono-sulfate amorphous] equals 1.4

###

# METHOD_NOTES: Example 21 crossover pharmacokinetics of mono-tosylate and di-tosylate tablets in fasted dogs
# Type: in vivo, beagle dogs
# CONDITION_SUMMARY: male, beagle, dog, plasma, po, 200 mg, Example 21, fasted dogs, 200 mg tablet PO, mean
ASSAY_ENDPOINT: AUC(0-t)

The measured AUC(0-t) associated with Cc1ccc(S(=O)(=O)O)cc1.Cn1cc(-c2cn(-c3ccc(OC(F)(F)F)cc3)c(=O)c3ncn(C)c23)cn1 [mono-tosylate] reads 70200 ng·h/mL

###

# METHOD_NOTES: Example 19 crossover pharmacokinetics of four oral tablet formulations in fasted dogs
# Type: in vivo, beagle dogs
# CONDITION_SUMMARY: male, beagle, dog, plasma, po, 200 mg/tablet/dog, Example 19, fasted dogs, 200 mg tablet PO, individual subjects; LOQ 1.02 to 5.1 ng/mL; read-out: Plasma concentration of Compound I at 24 hours
# Protocol: Pharmacokinetics parameters of formulations of Compound I and its salts in dogs were determined by orally administering a test formulation tablet at 200 mg of active (Compound I or salt) per dog. Blood samples were taken at various times after administration, plasma prepared, and submitted to analysis for parent drug using a qualified LC-MS-MS assay. Pharmacokinetics parameters derived from the plasma analytical data were determined using non-compartmental analysis. […]
ASSAY_ENDPOINT: concentration at 24 h (ng/mL)
One number for each entry, in ng/mL.

Value of concentration at 24 h reported for the molecule Cc1ccc(S(=O)(=O)O)cc1.Cn1cc(-c2cn(-c3ccc(OC(F)(F)F)cc3)c(=O)c3ncn(C)c23)cn1 [mono-tosylate] is 352

###

# METHOD_NOTES: Solubility in pure water at 25° C. with PXRD of solid residues
# Assay type: physicochemical
# CONDITION_SUMMARY: pure water, 25° C., 24 hours equilibration
ASSAY_ENDPOINT: S 24 hrs (mg/mL)
Answers are plain numbers, in mg/mL.

Some molecules with recorded S 24 hrs:
Cl.Cn1cc(-c2cn(-c3ccc(OC(F)(F)F)cc3)c(=O)c3ncn(C)c23)cn1 [mono-HCl crystalline]; 0.42
Cl.Cn1cc(-c2cn(-c3ccc(OC(F)(F)F)cc3)c(=O)c3ncn(C)c23)cn1 [mono-HCl amorphous]; 0.70

Provide the reported S 24 hrs of each entry below, same order.
1. Cn1cc(-c2cn(-c3ccc(OC(F)(F)F)cc3)c(=O)c3ncn(C)c23)cn1.O=S(=O)(O)O [mono-sulfate crystalline]
2. Br.Br.Cn1cc(-c2cn(-c3ccc(OC(F)(F)F)cc3)c(=O)c3ncn(C)c23)cn1

[1.54, 0.48]

###

# METHOD_NOTES: Example 20 crossover pharmacokinetics of two oral tablet formulations in dogs under fed conditions
# Format: in vivo, beagle dogs
# CONDITION_SUMMARY: male, beagle, dog, plasma, po, 200 mg/tablet/dog, Example 20, fed dogs, 200 mg tablet PO, mean; LLOQ 20 ng/mL; read-out: Plasma concentration of Compound I at 4 hours
ASSAY_ENDPOINT: concentration at 4 h (ng/mL)
Give bare numbers, in ng/mL.

The molecule Cc1ccc(S(=O)(=O)O)cc1.Cn1cc(-c2cn(-c3ccc(OC(F)(F)F)cc3)c(=O)c3ncn(C)c23)cn1 [mono-tosylate] showed concentration at 4 h equal to 4960

###

# METHOD_NOTES: Example 21 crossover pharmacokinetics of mono-tosylate and di-tosylate tablets in fasted dogs
# Type: in vivo, beagle dogs
# CONDITION_SUMMARY: male, beagle, dog, plasma, po, 200 mg/tablet per dog, Example 21, fasted dogs, 200 mg tablet PO, mean; LLOQ 20 ng/mL; read-out: Plasma concentration of Compound I at 2 hours
ASSAY_ENDPOINT: concentration at 2 h

The recorded concentration at 2 h for Cc1ccc(S(=O)(=O)O)cc1.Cn1cc(-c2cn(-c3ccc(OC(F)(F)F)cc3)c(=O)c3ncn(C)c23)cn1 [mono-tosylate] is 6480 ng/mL

###

# METHOD_NOTES: Solubility in pure water at 25° C. with PXRD of solid residues
# Type: physicochemical
# CONDITION_SUMMARY: Table 5: free base and crystalline salt forms
ASSAY_ENDPOINT: Solubility (24 hours) (µg/mL)
Answers are plain numbers, in µg/mL.

Completed entries (count: 5):
Cl.Cl.Cn1cc(-c2cn(-c3ccc(OC(F)(F)F)cc3)c(=O)c3ncn(C)c23)cn1 [di-HCl crystalline]; 760
Cn1cc(-c2cn(-c3ccc(OC(F)(F)F)cc3)c(=O)c3ncn(C)c23)cn1; 57
Cn1cc(-c2cn(-c3ccc(OC(F)(F)F)cc3)c(=O)c3ncn(C)c23)cn1.Cn1cc(-c2cn(-c3ccc(OC(F)(F)F)cc3)c(=O)c3ncn(C)c23)cn1.O=S(=O)(O)c1cccc2c(S(=O)(=O)O)cccc12 [hemi-napadisylate]; 1830
Cn1cc(-c2cn(-c3ccc(OC(F)(F)F)cc3)c(=O)c3ncn(C)c23)cn1.O=S(=O)(O)O [mono-sulfate crystalline]; 1540
Cn1cc(-c2cn(-c3ccc(OC(F)(F)F)cc3)c(=O)c3ncn(C)c23)cn1.Cn1cc(-c2cn(-c3ccc(OC(F)(F)F)cc3)c(=O)c3ncn(C)c23)cn1.O=S(=O)(O)CCS(=O)(=O)O [hemi-edisylate]; 990

Please examine the following record next.
GET /value?item= Br.Br.Cn1cc(-c2cn(-c3ccc(OC(F)(F)F)cc3)c(=O)c3ncn(C)c23)cn1 &field=Solubility (24 hours) returns 480

###

# METHOD_NOTES: Example 19 crossover pharmacokinetics of four oral tablet formulations in fasted dogs
# Format: in vivo, beagle dogs
# CONDITION_SUMMARY: male, beagle, dog, plasma, po, 200 mg/tablet/dog, Example 19, fasted dogs, 200 mg tablet PO, mean; LOQ 1.02 to 5.1 ng/mL; read-out: Plasma concentration of Compound I at 36 hours
ASSAY_ENDPOINT: concentration at 36 h (ng/mL)
Give bare numbers, in ng/mL.

Input Cc1ccc(S(=O)(=O)O)cc1.Cn1cc(-c2cn(-c3ccc(OC(F)(F)F)cc3)c(=O)c3ncn(C)c23)cn1 [mono-tosylate] . Output concentration at 36 h: 290

###

# METHOD_NOTES: Experimental determination of the pKa
# Type: physicochemical
ASSAY_ENDPOINT: pKa

Reported pKa of Cn1cc(-c2cn(-c3ccc(OC(F)(F)F)cc3)c(=O)c3ncn(C)c23)cn1 : 2.5

###

# METHOD_NOTES: Example 19 crossover pharmacokinetics of four oral tablet formulations in fasted dogs
# Format: in vivo, beagle dogs
# CONDITION_SUMMARY: male, beagle, dog, plasma, po, 200 mg, Example 19, fasted dogs, 200 mg tablet PO, mean
# Experimental: Pharmacokinetics parameters of formulations of Compound I and its salts in dogs were determined by orally administering a test formulation tablet at 200 mg of active (Compound I or salt) per dog. Blood samples were taken at various times after administration, plasma prepared, and submitted to analysis for parent drug using a qualified LC-MS-MS assay. Pharmacokinetics parameters derived from the plasma analytical data were determined using non-compartmental analysis. […]
ASSAY_ENDPOINT: AUC(0-t) (ng·h/mL)
Answers are plain numbers, in ng·h/mL.

Sample Cc1ccc(S(=O)(=O)O)cc1.Cn1cc(-c2cn(-c3ccc(OC(F)(F)F)cc3)c(=O)c3ncn(C)c23)cn1 [mono-tosylate] ; AUC(0-t) observed: 78500
